Values were extracted from ChEMBL document CHEMBL1147803.

- STUDY SYSTEM: Sphingosine 1-phosphate receptor 1 (Homo sapiens)
- Sequence (P21453 whole entry): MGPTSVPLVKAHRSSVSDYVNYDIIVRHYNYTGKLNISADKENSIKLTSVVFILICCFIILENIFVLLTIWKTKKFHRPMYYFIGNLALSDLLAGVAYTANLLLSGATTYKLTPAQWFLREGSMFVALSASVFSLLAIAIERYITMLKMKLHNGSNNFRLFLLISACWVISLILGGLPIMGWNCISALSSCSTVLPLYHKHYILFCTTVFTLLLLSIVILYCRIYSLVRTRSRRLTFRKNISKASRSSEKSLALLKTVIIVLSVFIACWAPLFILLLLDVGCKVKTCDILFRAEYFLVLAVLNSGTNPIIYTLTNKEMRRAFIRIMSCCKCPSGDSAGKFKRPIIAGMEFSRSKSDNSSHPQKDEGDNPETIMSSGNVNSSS
- EXPERIMENT NOTES: Displacement of [33P]S1P from S1P1 expressed in CHO cells
METRIC: IC50 (nM)

COMPOUND | IC50 / nM
CC(C)Cc1ccc(-c2nc(-c3ccc([C@@H]4CC[C@@H](CC(=O)O)N4)cc3)no2)cc1 (racemic) | 8
O=C(O)C[C@@H]1CC[C@H](c2ccc(-c3noc(-c4ccc([C@H]5CCC(F)(F)C5)cc4)n3)cc2)N1 (racemic) | 0.8
O=C(O)C[C@@H]1CC[C@H](c2ccc(-c3noc(-c4ccc([C@@H]5CCC(F)(F)C5)cc4)n3)cc2)N1 (racemic) | 1.2
CC(C)Cc1ccc(-c2nc(-c3ccc([C@@H]4CC[C@@H](CCC(=O)O)N4)cc3)no2)cc1 (racemic) | 5.7
O=C(O)C[C@@H]1CC[C@H](c2ccc(-c3noc(-c4ccc(C5CCCC5)c(F)c4)n3)cc2)N1 (racemic) | 2

[I] O=C(O)C[C@@H]1CC[C@H](c2ccc(-c3noc(-c4ccc([C@@H]5CCC(F)(F)C5)cc4)n3)cc2)N1 (stereo in doubt; form 1)
[II] CC(C)Cc1ccc(-c2nc(-c3ccc([C@H]4CC[C@@H](CCC(=O)O)N4)cc3)no2)cc1 (racemic)
Query string: Select the item whose IC50 value is smaller, choosing between I and II . Your answer should be the label attached to the chosen record.
Result string: I
